All figures here come from patent US20240279281A1.

Molecular target: T1, interleukin-23 receptor (IL-23R) (UniProt Q5VWK5 24-629, limits assumed)
T1 sequence (looked up): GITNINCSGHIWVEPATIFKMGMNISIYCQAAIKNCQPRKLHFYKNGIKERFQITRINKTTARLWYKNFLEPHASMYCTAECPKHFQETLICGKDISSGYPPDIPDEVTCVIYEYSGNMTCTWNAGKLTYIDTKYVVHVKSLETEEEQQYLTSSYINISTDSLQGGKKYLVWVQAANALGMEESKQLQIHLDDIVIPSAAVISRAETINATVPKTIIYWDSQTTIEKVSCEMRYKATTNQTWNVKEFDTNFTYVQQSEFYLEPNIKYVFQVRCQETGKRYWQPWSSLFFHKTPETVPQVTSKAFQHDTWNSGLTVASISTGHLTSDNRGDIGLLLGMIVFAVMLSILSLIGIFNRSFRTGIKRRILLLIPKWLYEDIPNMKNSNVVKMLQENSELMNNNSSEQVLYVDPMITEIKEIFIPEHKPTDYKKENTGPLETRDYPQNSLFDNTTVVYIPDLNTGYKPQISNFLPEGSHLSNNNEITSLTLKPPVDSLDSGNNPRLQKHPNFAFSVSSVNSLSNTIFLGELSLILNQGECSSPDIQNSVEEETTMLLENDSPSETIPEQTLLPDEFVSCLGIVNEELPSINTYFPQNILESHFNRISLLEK
Experiment: cell-based or functional assay
Starred links: 1 amine or outer side, 2 acyl side, 3 side chain; linkers in the order of their positions; H or OH if unused. Positions of bridges follow the written chain, without caps; N, C: chain ends. Non-standard residues stand in square brackets, D forms with d. TMAPF = 5-(4-(2-amino-2-carboxyethyl)phenoxy)-N,N,N-trimethylpentan-1-aminium, C[N+](C)(C)CCCCCOc1ccc(C[C@H](N[*:1])C(=O)[*:2])cc1; AEF(G) = 2-amino-3-(4-(2-guanidinoethoxy)phenyl)propanoic acid, N=C(N)NCCOc1ccc(C[C@H](N[*:1])C(=O)[*:2])cc1; 6Br2Nal = 2-amino-3-(6-bromonaphthalen-2-yl)propanoic acid, O=C([C@H](Cc1ccc2cc(Br)ccc2c1)N[*:1])[*:2]; 6F2Nal = 2-amino-3-(6-fluoronaphthalen-2-yl)propanoic acid, O=C([C@H](Cc1ccc2cc(F)ccc2c1)N[*:1])[*:2]; Trp(7-(3-AcNH-Ph)) = CC(=O)Nc1cccc(-c2cccc3c(C[C@H](N)C(=O)O)c[nH]c23)c1; 2Nal(6-OH) = N[C@@H](Cc1ccc2cc(O)ccc2c1)C(=O)O; Trp(7-Me) = Cc1cccc2c(C[C@H](N)C(=O)O)c[nH]c12; 3Pal(5-Me) = Cc1cncc(C[C@H](N)C(=O)O)c1; AEF = NCCOc1ccc(C[C@H](N)C(=O)O)cc1; 3Pal = N[C@@H](Cc1cccnc1)C(=O)O; NMecPEG3a = not defined here; Pen = CC(C)(S)[C@H](N)C(=O)O; Thp = NC1(C(=O)O)CCOCC1; Sar = CNCC(=O)O
Measured IL23R Reporter Assay IC50, listed per entry.

Before answering, review these 4 worked examples.
Exam item: State the recorded IL23R Reporter Assay IC50 for this entry: Ac-[dR][Pen]NT[Trp(7-Me)]K(Ac)[Pen][TMAPF][2Nal(6-OH)][Thp]EN[3Pal][Sar]-NH2 (disulfide 2-7 (inferred)) [SEQ ID NO: 59]
Marked response: < 0.01 µM

Exam item: State the recorded IL23R Reporter Assay IC50 for this entry: Ac-[dR][Pen]NT[Trp(7-Me)]K(Ac)[Pen][AEF][6Br2Nal][Thp]EN[Thp]-NH2 (disulfide 2-7 (inferred)) [SEQ ID NO: 444]
Marked response: ≥ 0.1 µM

Exam item: State the recorded IL23R Reporter Assay IC50 for this entry: Ac-[dR][Pen]NT[Trp(7-(3-AcNH-Ph))]K(Ac)[Pen][AEF][2Nal(6-OH)][Thp]EN[3Pal][Sar]-NH2 (disulfide 2-7 (inferred)) [SEQ ID NO: 287]
Marked response: < 0.01 µM

Exam item: State the recorded IL23R Reporter Assay IC50 for this entry: Ac-[dR][Pen]NT[Trp(7-Me)]K(Ac)[Pen][AEF][6F2Nal][Thp]EN[3Pal][Sar]-NH2 (disulfide 2-7 (inferred)) [SEQ ID NO: 407]
Marked response: < 0.01 µM

More entries:
Exam item: State the recorded IL23R Reporter Assay IC50 for this entry: Ac-[dR][Pen]NT[Trp(7-(3-AcNH-Ph))]K(Ac)[Pen][AEF(G)][2Nal(6-OH)][Thp]EN[3Pal(5-Me)][Sar]-NH2 (disulfide 2-7 (inferred)) [SEQ ID NO: 15]
Marked response: < 0.01 µM

Exam item: State the recorded IL23R Reporter Assay IC50 for this entry: cPEG3aCO-[Pen]NT[Trp(7-Me)]K(NMecPEG3a)[Pen][AEF][2Nal(6-OH)][Thp]EN[3Pal][Sar]-NH2 (disulfide 1-6 (inferred); not fully specified; printed as cPEG3aCO-Pen(3)-N-T-7MeW-K(NMecPEG3a)-Pen(3)-AEF-6OH2Nal-THP-E-N-3Pya-Sar-CONH2; reading uncertain) [SEQ ID NO: 319]
Marked response: < 0.01 µM
